TARGET UNDER TEST: cynomolgus DR5-Fc fusion protein (cyno DR5 amino acids 56 to 213 fused with human IgG1 Fc) (cynomolgus; human)
ASSAY REMARKS: SPR (Biacore), CM5 chip coated with cynomolgus DR5-Fc, 1 to 100 nM NB construct
Documented Kd across a set of binders

>  <BINDER>
4E6 (monomeric anti-DR5 NB construct) (VHH, llama VHH; periplasmic extract or purified monovalent material from E. coli; also called 4E6 parent; wild type 4E6; not shown: C-terminal c-myc tag and (His)6 tag coded by the vector) VHH: EVQLVESGGGSVQAGDSLRLSCAASGRTFGSIRVGWFRQTPGKEREFVAAINRNDGTTYYADSVKGRFTISRDNAKNTVYMQMASLKPEDTAVYYCAAGLQYNRSADRVPVGAVYWGQGTQVTVSS

>  <Kd, nM>
16

$$$$
>  <BINDER>
10F1 (monomeric anti-DR5 NB construct) (VHH, llama VHH; periplasmic extract or purified monovalent material from E. coli; not shown: C-terminal c-myc tag and (His)6 tag coded by the vector) VHH: EVQLVESGGGLVQPGGSLRLSCAASGFTFSRYWMYWVRQAPGKGLEWVSAINSGGGDTYYRDSVRGRFTISRDNFKNTLYLQMNSLKSEDTAVYYCAKAEGPPTFSLIRTMTVDPGAQGTQVTVSS

>  <Kd, nM>
140

$$$$
>  <BINDER>
7A12 (monomeric anti-DR5 NB construct) (VHH, llama VHH; periplasmic extract or purified monovalent material from E. coli; not shown: C-terminal c-myc tag and (His)6 tag coded by the vector) VHH: EVQLVESGGGLVQAGGSLRLSCAASGRTFSNYAMGWFRQAPGKEREFVAALNWSGGSTYYVDSVKGRFTISRDNAKNTVYLQMNSLKPEDTAVYYCAAAGSFSLGGRPYGDDYWGKGTLVTVSS

>  <Kd, nM>
7.1

$$$$
>  <BINDER>
11H6 (monomeric anti-DR5 NB construct) (VHH, llama VHH; periplasmic extract or purified monovalent material from E. coli; also called 11H6 parent; wild type 11H6; not shown: C-terminal c-myc tag and (His)6 tag coded by the vector) VHH: EVQLVESGGGLVQPGGSLRLSCAASGTFDKINNMGWYRQAPGKQRDLVAQITPGGITDYADSVKGRFTISRDNAKDTMYLQMNSLKPEDTAVYFCNAEILKRAYIDVYVNYWGQGTQVTVSS

>  <Kd, nM>
9200

$$$$
>  <BINDER>
11D1 (monomeric anti-DR5 NB construct) (VHH, llama VHH; periplasmic extract or purified monovalent material from E. coli; not shown: C-terminal c-myc tag and (His)6 tag coded by the vector) VHH: EVQLVESGGGLVQPGGSLRLSCAASGSIDSINNMGWYRQAPGKQRELVAEITPRGRTNYADSEKSRFTISRDNAKRTVNLQMNSLKPEDTAVYYCNAEVRERGTSWYRPDYWGQGTQVTVSS

>  <Kd, nM>
220

$$$$
